The values you see were collected from PubChem BioAssay AID1159580.

Experimental details: chemical genetic growth profiling, strain panel (AID 1159580);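 note: tested at 20 µM; growth read once vehicle control cultures reached saturation at 30 °C; 1 = growth at the plate median or of vehicle wells; lower values mean less growth of the strain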
Reported conditions: S. cerevisiae deletion strains, growth OD, locus YLR342W, strain FKS1
About 2,000 (36%) of roughly 5,500 compounds were called active. Not shown: some 18% with an inconclusive outcome. Cut-off read from the data, not from the text of the source: active = normalized growth mostly below about 0.91 (no sharp cut-off); inconclusive = no clear call, values can overlap the other calls; inactive = mostly above about 0.92. Some of the results follow.
Hi! Could you answer with just one of these? 1 (active), 0 (inactive)

Please review the following examples before continuing.
C=C(C)C1CNC(C(=O)O)C1CC(=O)O (stereo not given): 0
c1ccc(N=Nc2ccccc2)cc1: 0
CC(=O)NC1SCCC1=O (stereo not given): 0
C=C1C2CC[C@H]3[C@]4(C)C[C@H](OC5OC(CO)C(OS(=O)(=O)O)C(OS(=O)(=O)O)C5OC(=O)CC(C)C)C[C@@H](C(=O)O)[C@H]4CC[C@]3(C2)[C@H]1O (stereo not given in full): 0

Exam item: Entry CC(C)OC(=O)C(C)(C)Oc1ccc(C(=O)c2ccc(Cl)cc2)cc1 : call = ?
Marked response: 0

Exam item: Entry CCOC(=O)c1c(C)c(Cl)c(O)c(Cl)c1O : call = ?
Marked response: 1

Exam item: Entry CN(C)C(=S)SSC(=S)N(C)C : call = ?
Marked response: 1

Exam item: Entry CC(=O)OCC[N+](C)(C)C : call = ?
Marked response: 0

Exam item: Entry CCOC(=O)C(Cc1ccc(O)cc1)NC(C)=O (stereo not given) : call = ?
Marked response: 0

Exam item: Entry CCCCCCCCCCCCCCCC[N+](C)(C)C : call = ?
Marked response: 1

Exam item: Entry CN1CCc2cc3c(cc2[C@H]1C1OC(=O)c2c1ccc1c2OCO1)OCO3 (stereo not given in full) : call = ?
Marked response: 0

###

We begin with a simple list: items and their reported normalized growth.
Experimental details: chemical genetic growth profiling, strain panel (AID 1159580);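 note: tested at 20 µM; growth read once vehicle control cultures reached saturation at 30 °C; 1 = growth at the plate median or of vehicle wells; lower values mean less growth of the strain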
Reported conditions: S. cerevisiae deletion strains, growth OD, locus YDL074C, strain BRE1, active compounds read low
In all, about 5,500 compounds went through this assay and about 2,000 (36%) were called active. Roughly 18% stayed inconclusive and do not appear here. The list shows a part of the results.

// worked examples, normalized growth included
COC1=CC(=O)C[C@@H](C)[C@]12Oc1c(Cl)c(OC)cc(OC)c1C2=O: 1.02 (inactive)
COc1cc(NS(=O)(=O)c2ccc(N)cc2)nc(OC)n1: 0.995 (inactive)
CN(C)C(=S)SSC(=S)N(C)C: 0.08 (active)
N=c1ccn2c(n1)O[C@@H]1C2O[C@H](CO)[C@H]1O (stereo partly drawn): 1.02 (inactive)
COc1ccc2cc([C@H](C)CO)ccc2c1: 0.996 (inactive)

Exam item: Output measured normalized growth for this item: COc1ccc2c(c1OC)C(=O)O[C@@H]2[C@H]1c2cc3c(cc2CCN1C)OCO3
Marked response: 1.03 (inactive)

Exam item: Output measured normalized growth for this item: Cc1cc(O)c(C)c(O)c1C(=O)O
Marked response: 1.06 (inactive)

Exam item: Output measured normalized growth for this item: C=C1C([C@]2(C)C(CC(=O)OC)[C@@](C)(COC(C)=O)OC(=O)C[C@@H]2OC(C)=O)[C@@H](OC=O)[C@H](OC(=O)C(O)C(C)CC)[C@@]2(C)[C@H](c3ccoc3)CC(=O)C12O (stereo partly drawn)
Marked response: 1.02 (inactive)

###

Experimental details: chemical genetic growth profiling, strain panel (AID 1159580);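 note: tested at 20 µM; growth read once vehicle control cultures reached saturation at 30 °C; 1 = growth at the plate median or of vehicle wells; lower values mean less growth of the strain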
Reported conditions: S. cerevisiae deletion strains, growth OD, locus YDL035C, strain GPR1, active compounds read low
The campaign covered roughly 5,500 compounds. About 2,000 (36%) were called active. About 18% were inconclusive and are not listed. This is one part of the list.
normalized growth strictly less than 1 = t. Otherwise f.

CC(C(=O)O)c1ccc(-c2ccccc2)c(F)c1 (stereo not given): t
ClC1=C(Cl)C2(Cl)C3C(Cl)C=CC3C1(Cl)C2(Cl)Cl (stereo not given): t
CCCCCCCCNC(C)C(O)c1ccc(SC(C)C)cc1 (stereo not given): t

# next molecule below
Exam item: Bench note: check whether CC(=O)OCC[N+](C)(C)C shows normalized growth below 1
Marked response: t
